B1: TPR t1 (parent)
chain: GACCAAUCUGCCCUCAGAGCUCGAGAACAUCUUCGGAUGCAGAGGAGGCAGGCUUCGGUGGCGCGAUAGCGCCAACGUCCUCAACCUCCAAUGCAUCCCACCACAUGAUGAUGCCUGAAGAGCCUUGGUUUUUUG

Variants of: B1
test summary: polymerase ribozyme fitness, log enrichment relative to wild type (log ratio); higher = more active; in vitro selection for triplet polymerase activity
Quick reference for polymerase ribozyme fitness (log ratio) among some variants
Number, no unit, nothing else.

Look over these answered cases.
- sequence code: "GACCAAUCUGCCCUCAGAGCUCGAGAACAUCUUCGAAUGCAGAGGAGGCAGGCUUCGGUGGCGCGAUAGCGCCAACGUCCUCAACCUCCAAUGCAUCCCACCACAUGAUGAUGCCUGAAGUGCCUUGGUUUUAUG [G36A A121U U133A]"
  observation type: "polymerase ribozyme fitness (log ratio)"
  endpoint value: 1.79
- sequence code: "GACCAAUCUGCCCUCAGAGCUCGAGAACAUCUUCGGAUGCAGAGGAGGCAGGCUUCGGUGGCGCGAUCGCGCCAACGUCCUCAACCUCCAAUGCAUCCCACCACAUGAUGAUGCCUGAAGAGCAUUGGUUUUUUG [A68C C124A]"
  observation type: "polymerase ribozyme fitness (log ratio)"
  endpoint value: -5.4
- sequence code: "GACCAAUCUGCCCUCAGAGCUCGAGAACAUCUUCGGAUGCAGAGGAGGUAGGCUUCGGUGGCACGAUAGCGCCAACGUCCUCAACCUCCAAUGCAUCCCACCACAUGAUGAUGCCUGAAGAGCCUUGGUUUUUUG [C49U G63A]"
  observation type: "polymerase ribozyme fitness (log ratio)"
  endpoint value: -1.67
- sequence code: "GACCAAUCUGCCCUCAGAGCUCGAGAACAUCUUCGGAUGUAGAGGAGGCAGGCUUCGGUGGCGCGAUAGCGCCAACGUCCUCAACCUCCAAUGCAUCCCACCACAUGAUGAUGCAUGAAGAGCCUUGAUUUUUUG [C40U C115A G128A]"
  observation type: "polymerase ribozyme fitness (log ratio)"
  endpoint value: -2.68

Entry GACCAAUCUGCCCUCAGAGCUCGAGAACAUCUUCGGAUGCAGAGGAGGCAGGCUUCGGAGGCGCGAUAGCGCCAACGUCCUCAACCUCCAAUGAAUCCCACCACAUGAUGAUGCCUGAAGAGCCUUGGUUUUUUG [U59A C94A] : reported polymerase ribozyme fitness (log ratio) = ?
-0.84
